target-of-assay: rhCD45 His tag (human) (UniProt P08575)
experiment: BLI (Octet HTX), compared with the parental antibody
observed-property: fold change in KD relative to the parental antibody

• hu CD45 HC3 + LC1 (antibody, V domains shown) VH: EVQLVESGGGLVQPGGSLRLSCAASGFDFSRYWMSWVRQAPGKGLEWVAEINPTSSTINFVDSVKGRFTISRDNAKNSLYLQMNSLRAEDTAVYYCARGNYYRYGDAMDYWGQGTMVTVSS VL: DIVMTQSPDSLAVSLGERATINCKSSKSVSTSGYSYLHWYQQKPGQPPKLLIYLASNLESGVPDRFSGSGSGTDFTLTISSLQAEDVAVYYCQHSRELPFTFGQGTKLEIK = < 10 fold
